src = paper PMC8291497

Target: PTB (human Mint2 PTB domain without the ARM linker, residues 364-538, Y524W) (human, UniProt Q99767 364-538, Y524W)
Sequence (Q99767 364-538 Y524W): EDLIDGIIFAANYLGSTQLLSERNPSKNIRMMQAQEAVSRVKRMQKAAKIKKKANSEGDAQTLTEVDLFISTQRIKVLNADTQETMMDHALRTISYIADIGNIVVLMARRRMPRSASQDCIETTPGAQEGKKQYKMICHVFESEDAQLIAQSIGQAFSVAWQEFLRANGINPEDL
Assay: fluorescence polarisation
Settings: both partners purified

BINDER: NGYENPTYKFFE [APP^WT 12-mer (NGYENPTYKFFE), unlabelled]
Ki [nM]: 740
